Values compiled from patent US8148410B2.

Target System: recombinant human S1P1 receptor (Homo sapiens, UniProt P21453)
Sequence (P21453 whole entry): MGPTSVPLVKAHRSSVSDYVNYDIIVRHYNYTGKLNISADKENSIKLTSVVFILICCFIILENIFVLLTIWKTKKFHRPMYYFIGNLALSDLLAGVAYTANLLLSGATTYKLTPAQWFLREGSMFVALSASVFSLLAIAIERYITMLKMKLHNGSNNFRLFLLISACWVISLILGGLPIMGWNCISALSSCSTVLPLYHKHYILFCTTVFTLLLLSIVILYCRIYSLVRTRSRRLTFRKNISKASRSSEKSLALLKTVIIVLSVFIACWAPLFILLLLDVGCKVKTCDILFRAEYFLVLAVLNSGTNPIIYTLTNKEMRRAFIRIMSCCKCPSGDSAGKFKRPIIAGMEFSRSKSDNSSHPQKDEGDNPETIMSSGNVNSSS
Assay Protocol: GTPγS assay to determine EC50 values
Condition Details: agonist concentration inducing 50% of maximal specific 35S-GTPγS binding; membranes of CHO cells expressing recombinant human S1P1
pEC50: −log10 of the molar value.
Measured Endpoint: pEC50

| Compound | Measured Endpoint | Measured Number |
| --- | --- | --- |
| CCCN(C)Cc1sc(-c2nc(-c3cc(C)c(OC[C@@H](O)CNC(=O)CO)c(CC)c3)no2)cc1CC | pEC50 | 9.10 |
| CCN(CC)Cc1sc(-c2nc(-c3cc(C)c(CCC(=O)O)c(C)c3)no2)cc1C | pEC50 | 7.92 |

1 = Cc1cc(-c2nc(-c3cc(C)c(OCC(O)CNC(=O)CO)c(C)c3)no2)sc1CN(C)CCO (racemic)
2 = CCCN(CC)Cc1sc(-c2nc(-c3cc(C)c(CCC(=O)NCCC(=O)O)c(CC)c3)no2)cc1C
3 = CCc1cc(-c2nnc(-c3cc(C)c(CN(C)C)s3)o2)cc(C)c1OC[C@@H](O)CNC(=O)CO
Ask: Put the compounds in ascending order of pEC50. Respond with an ordered listing of the labels, as requested.
Result: 1, 3, 2

====

Target System: recombinant human S1P1 receptor (Homo sapiens, UniProt P21453)
Assay Protocol: GTPγS assay to determine EC50 values
Condition Details: agonist concentration inducing 50% of maximal specific 35S-GTPγS binding; membranes of CHO cells expressing recombinant human S1P1
Measured Endpoint: EC50 (nM)

| Molecule | Units Text | Measured Number |
| --- | --- | --- |
| CCN(CC)Cc1sc(-c2nc(-c3cc(C)c(OC[C@@H](O)CO)c(Cl)c3)no2)cc1C | nM | 2.1 |
| CNCc1sc(-c2nc(-c3cc(C)c(OCC(O)CNC(=O)CO)c(C)c3)no2)cc1C (racemic) | nM | 3.8 |
| CCc1cc(-c2noc(-c3cc(C)c(CN(CC)C(C)C)s3)n2)cc(C)c1OC[C@@H](O)CNC(=O)CO | nM | 3.3 |
| CCc1cc(-c2noc(-c3cc(C)c(CN(CC)CC)s3)n2)cc(C)c1OC[C@@H](O)CNC(=O)CO | nM | 2.5 |
| CCN(Cc1sc(-c2nc(-c3cc(C)c(OC[C@@H](O)CNC(=O)CO)c(C)c3)no2)cc1C)C(C)C | nM | 0.5 |

P = CCCN(C)Cc1sc(-c2nc(-c3cc(C)c(CCC(=O)O)c(CC)c3)no2)cc1CC
Q = CCN(CC)Cc1sc(-c2nc(-c3cc(C)c(OC[C@@H](O)CNC(=O)CO)c(OC)c3)no2)cc1C
Ask: Param pair: P , Q . Output: the one whose EC50 is numerically greater. Answer by stating the label of the chosen item.
Result: P
(P: 9.1 nM, Q: 2.5 nM)

====

Target System: recombinant human S1P1 receptor (Homo sapiens, UniProt P21453)
Assay Protocol: GTPγS assay to determine EC50 values
Condition Details: agonist concentration inducing 50% of maximal specific 35S-GTPγS binding; membranes of CHO cells expressing recombinant human S1P1
pEC50: −log10 of the molar value.
Measured Endpoint: pEC50

Use the examples below as a reference point.
| Compound | pEC50 |
| --- | --- |
| CCCN(CC)Cc1sc(-c2nc(-c3cc(C)c(OC[C@@H](O)CNC(=O)CO)c(CC)c3)no2)cc1C [Example 57] | 8.55 |
| CCN(CCO)Cc1sc(-c2nc(-c3cc(C)c(OCC(O)CNC(=O)CO)c(C)c3)no2)cc1C (racemic) [Example 31] | 8.09 |
| CCCN(C)Cc1sc(-c2nc(-c3cc(C)c(CCC(=O)NCC(=O)OC)c(CC)c3)no2)cc1C [Example 98] | 7.76 |
| CCc1cc(-c2noc(-c3cc(C)c(CN(C)CC)s3)n2)cc(C)c1OC[C@@H](O)CNC(=O)CO [Example 52] | 8.66 |
| CCc1cc(-c2noc(-c3cc(C)c(CN(CC)CC)s3)n2)cc(C)c1CCC(=O)NCCO [Example 136] | 7.73 |

P = Cc1cc(-c2nc(-c3cc(C)c(OCC(O)CNC(=O)CO)c(C)c3)no2)sc1CN1CCCCC1 (racemic) [Example 33]
Q = CCc1cc(-c2noc(-c3cc(C)c(CN(CC)CC)s3)n2)cc(C)c1OC[C@@H](O)CNC(CO)CO [Example 214]
Ask: Param pair: P , Q . Output: the one whose pEC50 is numerically greater. Answer by stating the label of the chosen item.
Result: Q

P = CCc1cc(-c2noc(-c3cc(C)c(CN(CC)CC)s3)n2)cc(C)c1OC[C@@H](O)CNCC(=O)O [Example 220]
Q = CCc1cc(-c2noc(-c3cc(C)c(CN(CC)CC)s3)n2)cc(C)c1OC[C@@H](O)CNC(=O)CN [Example 225]
Ask: For P and Q , which recorded pEC50 is lower? Answer by stating the label of the chosen item.
Result: P

A = CCc1cc(-c2noc(-c3cc(C)c(CN(CC)CC)s3)n2)cc(C)c1OC[C@@H](O)CNC(=O)CCO [Example 223]
B = CCc1cc(-c2nc(-c3cc(C)c(OC[C@H](O)CO)c(CC)c3)no2)sc1CN(C)C [Example 81]
Ask: For A and B , which recorded pEC50 is lower? Answer by stating the label of the chosen item.
Result: A

P = CCc1cc(-c2noc(-c3cc(C)c(CN(CC)CC)s3)n2)cc(C)c1OC[C@@H](O)CNCCO [Example 210]
Q = CCc1cc(-c2nc(-c3cc(C)c(CN(CC)CC)s3)no2)cc(C)c1OC[C@@H](O)CNC(=O)CO [Example 149]
R = CCN(CC)Cc1sc(-c2nc(-c3cc(C)c(N)c(Cl)c3)no2)cc1C [Example 187]
Ask: Place the items in sequence of falling pEC50. Respond with an ordered listing of the labels, as requested.
Result: Q, P, R
(Q: 8.80, P: 8.02, R: 7.66)
